Where do these numbers come from? They come from ChEMBL document CHEMBL3414543.

# system tested: Polyunsaturated fatty acid lipoxygenase ALOX12 (Homo sapiens)
# experiment summary: Inhibition of 12-LOX in human blood PMNL assessed as remaining activity by measuring 12-HETE synthesis at 10 uM
Recorded Activity values for a group of molecules are listed next.
measured attribute: Activity (%)

>  <substance smiles>
CCCCCCC1=C(O)C(=O)C=C(O)C1=O

>  <units label>
%

>  <result number>
105

$$$$
>  <substance smiles>
CCCCCCCCCCCCCCC1=C(OC)C(OC)=CC(=O)C1=O

>  <units label>
%

>  <result number>
87.3

$$$$
>  <substance smiles>
COC1=CC(=O)C(=O)C(C/C=C(\C)CC/C=C(\C)CCC=C(C)C)=C1OC

>  <units label>
%

>  <result number>
211

$$$$
>  <substance smiles>
CCCCC1=C(O)C(=O)C=C(OC)C1=O

>  <units label>
%

>  <result number>
91.2

$$$$
>  <substance smiles>
COC1=CC(=O)C(=O)C(C/C=C(\C)CCC=C(C)C)=C1OC

>  <units label>
%

>  <result number>
72.8

$$$$
>  <substance smiles>
CCCCCCCCCCCCCC1=C(O)C(=O)C=C(O)C1=O

>  <units label>
%

>  <result number>
84.3

$$$$

* * *

# system tested: Polyunsaturated fatty acid lipoxygenase ALOX15 (Homo sapiens)
# experiment summary: Inhibition of 15-LOX-1 in human blood PMNL assessed as remaining activity by measuring 15-HETE synthesis at 10 uM
Recorded Activity values for a group of compounds are listed next.

>  <compound>
COC1=CC(=O)C(=O)C(C/C=C(\C)CCC=C(C)C)=C1OC

>  <Activity / %>
125

$$$$
>  <compound>
COC1=CC(=O)C(OC)=C(C/C=C(\C)CCC=C(C)C)C1=O

>  <Activity / %>
127

$$$$
>  <compound>
CCCCCCCCC1=C(OC)C(=O)C=C(OC)C1=O

>  <Activity / %>
123

$$$$
>  <compound>
CCCCC1=C(O)C(=O)C=C(OC)C1=O

>  <Activity / %>
112

$$$$
>  <compound>
CCCCCCCCCCCC1=C(OC)C(OC)=CC(=O)C1=O

>  <Activity / %>
105

$$$$
>  <compound>
CCCCCCCCC1=C(O)C(=O)C=C(OC)C1=O

>  <Activity / %>
105

$$$$
>  <compound>
COC1=CC(=O)C(=O)C(C/C=C(\C)CC/C=C(\C)CCC=C(C)C)=C1OC

>  <Activity / %>
174

$$$$
>  <compound>
CCCCCCCCCCCC1=C(OC)C(=O)C=C(OC)C1=O

>  <Activity / %>
93.4

$$$$
>  <compound>
CCCCCCCCCCCCCCCC1=C(O)C(=O)C=C(OC)C1=O

>  <Activity / %>
103

$$$$
>  <compound>
CCCCCCCCCCCC1=C(O)C(=O)C=C(OC)C1=O [5-O-METHYLEMBELIN]

>  <Activity / %>
131

$$$$
>  <compound>
CCCCCCCCCCCCCCC1=C(O)C(=O)C=C(OC)C1=O

>  <Activity / %>
116

$$$$

* * *

# system tested: UniProt P16050
# Sequence (P16050 whole entry): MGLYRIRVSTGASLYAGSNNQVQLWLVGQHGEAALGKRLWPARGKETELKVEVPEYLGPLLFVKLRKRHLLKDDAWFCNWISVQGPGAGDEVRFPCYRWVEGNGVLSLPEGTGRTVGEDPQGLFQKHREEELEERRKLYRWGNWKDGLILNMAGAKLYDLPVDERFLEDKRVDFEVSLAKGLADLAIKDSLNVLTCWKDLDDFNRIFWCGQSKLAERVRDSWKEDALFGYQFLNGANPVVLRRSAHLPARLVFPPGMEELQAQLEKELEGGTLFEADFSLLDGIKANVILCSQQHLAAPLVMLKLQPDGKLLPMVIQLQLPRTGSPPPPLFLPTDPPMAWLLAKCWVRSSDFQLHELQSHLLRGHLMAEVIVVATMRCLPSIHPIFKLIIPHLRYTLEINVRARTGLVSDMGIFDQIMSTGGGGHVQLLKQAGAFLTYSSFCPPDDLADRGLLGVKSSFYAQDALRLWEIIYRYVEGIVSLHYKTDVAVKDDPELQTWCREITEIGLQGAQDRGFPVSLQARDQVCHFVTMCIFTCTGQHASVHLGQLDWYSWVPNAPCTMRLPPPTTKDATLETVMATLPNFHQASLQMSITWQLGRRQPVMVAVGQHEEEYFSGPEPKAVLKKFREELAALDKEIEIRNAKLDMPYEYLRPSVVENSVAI
# experiment summary: Inhibition of 15-LOX-1 in human blood PMNL assessed as remaining activity by measuring 15-HETE synthesis at 10 uM
measured attribute: Activity (%)

>  <substance smiles>
CCCCCCCCCCCCC1=C(O)C(=O)C=C(O)C1=O

>  <measured attribute>
Activity

>  <result number>
65.1

$$$$
>  <substance smiles>
CCCCCCCCC1=C(O)C(=O)C=C(O)C1=O

>  <measured attribute>
Activity

>  <result number>
88.9

$$$$
>  <substance smiles>
CCCCCCCCCCCCCCCC1=C(OC)C(OC)=CC(=O)C1=O

>  <measured attribute>
Activity

>  <result number>
115

$$$$
>  <substance smiles>
CCCCCCCCCCCCCCC1=C(OC)C(OC)=CC(=O)C1=O

>  <measured attribute>
Activity

>  <result number>
139

$$$$
>  <substance smiles>
CCCCCCCCCCCCCC1=C(OC)C(=O)C=C(OC)C1=O

>  <measured attribute>
Activity

>  <result number>
84.1

$$$$
>  <substance smiles>
CCCCCCCCCCCCCCCC1=C(OC)C(=O)C=C(OC)C1=O

>  <measured attribute>
Activity

>  <result number>
115

$$$$
